Tested on: LOX IMVI (Melanoma)
Experiment: five dose-response growth inhibition/cytotoxicity, LOX IMVI
Format: cell-based, human
Details: read-out: LC50 (the source's name)
endpoint: CC50 (µM)
Express your answer in µM, writing the number without its unit.

Request: Request body: readout CC50, system LOX IMVI (Melanoma), query O=C1NC(=S)NC(=O)C1=Cc1cn(C(=O)c2cccc3ccccc23)c2ccccc12 . Return the value.
Result: 55.6

Request: Request body: readout CC50, system LOX IMVI (Melanoma), query COc1ccc2c(c1)c(C=C1C(=O)NC(=S)NC1=O)cn2C(=O)c1ccccc1Br . Return the value.
Result: 47.9
